Target: human CYP2C19 (Homo sapiens)
Sequence (P33261 whole entry): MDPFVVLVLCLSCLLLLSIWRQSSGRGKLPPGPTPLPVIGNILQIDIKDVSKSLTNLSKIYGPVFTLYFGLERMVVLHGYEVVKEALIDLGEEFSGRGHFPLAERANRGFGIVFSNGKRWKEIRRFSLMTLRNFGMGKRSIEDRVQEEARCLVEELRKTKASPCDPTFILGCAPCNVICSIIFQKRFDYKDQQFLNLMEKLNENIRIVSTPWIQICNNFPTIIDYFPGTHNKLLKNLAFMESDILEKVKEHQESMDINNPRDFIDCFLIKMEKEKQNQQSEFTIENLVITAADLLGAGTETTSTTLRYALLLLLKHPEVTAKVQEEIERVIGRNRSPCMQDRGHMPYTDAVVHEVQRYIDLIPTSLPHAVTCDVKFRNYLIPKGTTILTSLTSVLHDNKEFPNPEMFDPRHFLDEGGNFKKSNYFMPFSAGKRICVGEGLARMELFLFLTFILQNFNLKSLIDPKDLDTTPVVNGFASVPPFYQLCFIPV
Settings: human
measured.property: CYP2C19 Efficacy (in parenthesis)

c1ccc(-c2ccc(C(c3ccccc3)n3ccnc3)cc2)cc1 (stereo not drawn); 0.47 ± 0.14 (-136 ± 18) %
CCCN(CCc1cccs1)[C@H]1CCc2c(O)cccc2C1; 2.55 ± 0.17 (-115 ± 10) %
CC(C)[N+](C)(CCC(C(N)=O)(c1ccccc1)c1ccccc1)C(C)C [Isopropamide]; 35.59 ± 11.39 (-61 ± 21) %
C=CCOC(=O)C(C)(C)OC(=O)c1cc(-n2c(=O)cc(C(F)(F)F)n(C)c2=O)ccc1Cl; 50.02 ± 19.28 (-89 ± 23) %
CCCCC(C#N)(Cn1cncn1)c1ccc(Cl)cc1 (stereo not drawn); 0.66 ± 0.12 (-168 ± 41) %
O=[N+]([O-])c1ccc2ccc3cccc4ccc1c2c34; 14.04 ± 11.88 (-69 ± 19) %
Clc1ccc(C(c2ccccc2Cl)C(Cl)(Cl)Cl)cc1 (stereo not drawn); 0.35 ± 0.15 (-129 ± 3) %
CN(C)C(=O)Nc1ccc(Cl)c(Cl)c1; 39.45 ± 16.91 (-98 ± 5) %
CCOP(=S)(OCC)SCn1nnc2ccccc2c1=O; 0.32 ± 0.06 (-141 ± 5) %
Oc1ccc2ccc3cccc4ccc1c2c34 [1-Hydroxypyrene]; 15.71 ± 4.38 (-129 ± 16) %
O=C1N(c2ccccc2)c2ccccc2C1(Cc1ccncc1)Cc1ccncc1; 1.71 ± 1.07 (-136 ± 7) %
Clc1ccc(C(Cn2ccnc2)OCc2ccc(Sc3ccccc3)cc2)c(Cl)c1 (stereo not drawn) [Fenticonazole nitrate]; 2.65 ± 0.17 (-137 ± 20) %
Clc1ccc(CCC(Cn2ccnc2)Sc2c(Cl)cccc2Cl)cc1 (stereo not drawn) [Butoconazole nitrate]; 0.04 ± 0.0 (-132 ± 17) %
O=C(Nc1ccc(S(=O)(=O)N2CCOCC2)cc1)c1cc(Cl)ccc1NS(=O)(=O)c1ccc(Cl)s1; 41.28 ± 3.36 (-131 ± 15) %
COc1c2ccoc2cc2oc(=O)ccc12; 10.35 ± 3.33 (-151 ± 18) %
CCCC1COC(Cn2cncn2)(c2ccc(Cl)cc2Cl)O1 (stereo not drawn); 0.52 ± 0.14 (-134 ± 10) %
CCOP(=S)(OCC)Oc1ccc2c(C)c(Cl)c(=O)oc2c1; 0.32 ± 0.04 (-144 ± 23) %
CC1(C)CCC(Cc2ccc(Cl)cc2)C1(O)Cn1cncn1 (stereo not drawn); 0.17 ± 0.05 (-148 ± 4) %
CC(C)(C)C(O)(CCc1ccc(Cl)cc1)Cn1cncn1 (stereo not drawn); 0.45 ± 0.0 (-115 ± 9) %
O=C1c2ccccc2C(=O)C1C(=O)C(c1ccccc1)c1ccccc1; 34.81 ± 11.45 (-80 ± 23) %
Clc1ccc(C2(Cn3cncn3)OCCO2)c(Cl)c1; 2.14 ± 0.96 (-148 ± 8) %
Fc1ccc(Oc2ccnc3cc(Cl)cc(Cl)c23)cc1; 13.35 ± 5.76 (-134 ± 20) %
COP(=S)(OC)SCn1nnc2ccccc2c1=O; 1.01 ± 0.12 (-134 ± 9) %
Brc1cc2ccccc2c2ccccc12; 29.42 ± 9.47 (-107 ± 13) %
CC(C)=CCOc1c2occc2cc2ccc(=O)oc12; 4.36 ± 0.0 (-126 ± 1) %
Brc1c2ccccc2cc2ccccc12; 26.26 ± 8.46 (-125 ± 5) %
Clc1ccccc1-c1nc(-c2ccncc2)no1 [Pifexole]; 0.74 ± 0.41 (-105 ± 12) %
Clc1ccccc1C(c1ccccc1)(c1ccccc1)n1ccnc1; 3.88 ± 0.66 (-140 ± 14) %
OC(c1ccc(F)cc1)(c1cncnc1)c1ccccc1Cl (stereo not drawn); 2.7 ± 1.21 (-141 ± 5) %
CCCOC/C(=N\c1ccc(Cl)cc1C(F)(F)F)n1ccnc1; 0.36 ± 0.3 (-125 ± 6) %
ClC(Cl)=C(c1ccc(Cl)cc1)c1ccc(Cl)cc1; 0.57 ± 0.14 (-135 ± 7) %
O=S(=O)(c1ccc(Cl)cc1)c1ccc(Cl)cc1; 0.34 ± 0.1 (-146 ± 11) %
CCC1COC(Cn2cncn2)(c2ccc(Cl)cc2Cl)O1 (stereo not drawn); 0.32 ± 0.04 (-137 ± 10) %
CCOP(=S)(OCC)SCn1c(=O)oc2cc(Cl)ccc21; 0.13 ± 0.05 (-148 ± 13) %
CCN(CC)C(=O)SCc1ccc(Cl)cc1; 0.66 ± 0.12 (-124 ± 7) %
N#C/C(=C1/SC[C@@H](c2ccc(Cl)cc2Cl)S1)n1ccnc1 [luliconazole, reference compound]; 0.46 ± 0.08 (-137 ± 13) %
Clc1ccc(C(c2ccc(Cl)cc2)C(Cl)(Cl)Cl)cc1; 0.04 ± 0.02 (-132 ± 4) %
CC[N+](CC)(CC(=O)Nc1c(C)cccc1C)Cc1ccccc1 [Denatonium benzoate]; 38.47 ± 2.51 (-100 ± 4) %
CC(C1CC1)C(O)(Cn1cncn1)c1ccc(Cl)cc1 (stereo not drawn); 0.3 ± 0.07 (-141 ± 28) %
